target: Rn_DYRK1A (Rattus norvegicus); test: primary screening, short panel of mammalian kinases; type: biochemical; conditions: compound 10 μM; ATP 10 µM; means, n = 2; read-out: Residual kinase activity Rn_DYRK1A
Measured endpoint: remaining activity at 10 µM (%)

Cc1ccc(-n2cc(COc3cccc4cnc(Nc5cccc(-c6ccc(C(=O)O)cc6)c5)nc34)nn2)c([N+](=O)[O-])c1 [Compound 10a] ... 84
Cc1ccc(-n2cc(COc3cccc4cnc(Nc5cc(Cl)cc(-c6cccc(C(=O)O)c6)c5)nc34)nn2)c([N+](=O)[O-])c1 [Compound 13b] ... 62

###

target: Rn_DYRK1A (Rattus norvegicus, UniProt Q63470); assay: primary screening, short panel of mammalian kinases; type: biochemical; details: compound 10 μM; ATP 10 µM; means, n = 2; read-out: Residual kinase activity Rn_DYRK1A
Measured endpoint: remaining activity at 10 µM (%)

[A] Cc1ccc(-n2cc(COc3cccc4cnc(Nc5cccc(-c6cccc(C(=O)O)c6)c5)nc34)nn2)c([N+](=O)[O-])c1 [Compound 13a]
[B] Cc1ccc(-n2cc(COc3cccc4cnc(Nc5cc(Cl)cc(-c6ccc(C(=O)O)cc6)c5)nc34)nn2)c([N+](=O)[O-])c1 [Compound 10b]
Enquiry: Could you please tell me which of these two has the higher remaining activity at 10 µM: A or B ? Use the label to indicate which entry you chose.
Return: B

###

Here, each record is paired with measured remaining activity at 10 µM data.
Molecular target: UniProt P49674
Sequence (P49674 whole entry): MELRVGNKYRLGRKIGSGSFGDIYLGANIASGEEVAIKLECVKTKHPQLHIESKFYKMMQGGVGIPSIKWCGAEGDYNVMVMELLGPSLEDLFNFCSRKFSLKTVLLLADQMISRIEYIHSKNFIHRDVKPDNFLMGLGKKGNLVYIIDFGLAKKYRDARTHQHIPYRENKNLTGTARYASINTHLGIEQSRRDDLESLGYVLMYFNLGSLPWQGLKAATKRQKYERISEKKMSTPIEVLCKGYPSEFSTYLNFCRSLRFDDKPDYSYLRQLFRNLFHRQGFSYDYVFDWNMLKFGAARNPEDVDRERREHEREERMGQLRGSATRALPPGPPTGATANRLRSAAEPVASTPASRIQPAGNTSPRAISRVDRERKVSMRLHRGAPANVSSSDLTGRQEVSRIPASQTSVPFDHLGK
Test: primary screening, short panel of mammalian kinases
Format: biochemical
Settings: compound 10 μM; ATP 10 µM; means, n = 2; read-out: Residual kinase activity Hs_CK1ε
Excerpt: Our molecules have been submitted first to a primary screening against a panel of eight disease-related kinases: five members of the CMGC (for CDK, MAPK, GSK3, and CLK) group (CDK5/p25, CDK9/CyclinT, GSK3β, CLK1 and DYRK1A), one CAMK (calmodulin/calcium regulated kinase PIM1), one CK1 (the casein kinase CK1ε), and haspin as a […] kinase. Figure 4 Primary evaluation of the inhibition of the new quinazolines against a short panel of mammalian kinases. […]

Use these answered entries as a reference point.
Cc1ccc(-n2cc(COc3cccc4cnc(Nc5cccc(-c6ccc(C(=O)O)cc6)c5)nc34)nn2)c([N+](=O)[O-])c1 [Compound 10a] ... 84%
COC(=O)c1ccc(-c2cc(Cl)cc(Nc3ncc4cccc(OCc5cn(-c6ccc(C)cc6[N+](=O)[O-])nn5)c4n3)c2)cc1 ... ≥ 100%
Cc1ccc(-n2cc(COc3cccc4cnc(Nc5cc(Cl)cc(-c6cccc(C(=O)O)c6)c5)nc34)nn2)c([N+](=O)[O-])c1 [Compound 13b] ... ≥ 100%

Please find the next molecule below.
Enquiry: For the molecule COC(=O)c1cccc(-c2cc(Cl)cc(Nc3ncc4cccc(OCc5cn(-c6ccc(C)cc6[N+](=O)[O-])nn5)c4n3)c2)c1 [Compound 12b] , give its measured remaining activity at 10 µM value.
Return: ≥ 100%

###

molecular target: Hs_CDK9/CyclinT (Homo sapiens, UniProt P50750); assay: primary screening, short panel of mammalian kinases; assay type: biochemical; conditions: compound 1 μM; ATP 10 µM; means, n = 2; read-out: Residual kinase activity Hs_CDK9/CyclinT
Sequence (P50750 whole entry): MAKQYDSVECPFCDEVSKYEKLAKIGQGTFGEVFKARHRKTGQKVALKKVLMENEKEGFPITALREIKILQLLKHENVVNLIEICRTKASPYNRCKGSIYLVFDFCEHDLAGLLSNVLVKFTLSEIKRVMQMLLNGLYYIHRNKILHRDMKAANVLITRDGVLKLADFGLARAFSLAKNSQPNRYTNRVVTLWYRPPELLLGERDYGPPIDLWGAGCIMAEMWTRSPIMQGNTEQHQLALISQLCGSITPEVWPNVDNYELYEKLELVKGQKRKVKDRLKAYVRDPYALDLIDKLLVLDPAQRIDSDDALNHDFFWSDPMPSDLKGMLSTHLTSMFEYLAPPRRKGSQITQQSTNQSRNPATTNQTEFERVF
Sequence (O60563 whole entry partner): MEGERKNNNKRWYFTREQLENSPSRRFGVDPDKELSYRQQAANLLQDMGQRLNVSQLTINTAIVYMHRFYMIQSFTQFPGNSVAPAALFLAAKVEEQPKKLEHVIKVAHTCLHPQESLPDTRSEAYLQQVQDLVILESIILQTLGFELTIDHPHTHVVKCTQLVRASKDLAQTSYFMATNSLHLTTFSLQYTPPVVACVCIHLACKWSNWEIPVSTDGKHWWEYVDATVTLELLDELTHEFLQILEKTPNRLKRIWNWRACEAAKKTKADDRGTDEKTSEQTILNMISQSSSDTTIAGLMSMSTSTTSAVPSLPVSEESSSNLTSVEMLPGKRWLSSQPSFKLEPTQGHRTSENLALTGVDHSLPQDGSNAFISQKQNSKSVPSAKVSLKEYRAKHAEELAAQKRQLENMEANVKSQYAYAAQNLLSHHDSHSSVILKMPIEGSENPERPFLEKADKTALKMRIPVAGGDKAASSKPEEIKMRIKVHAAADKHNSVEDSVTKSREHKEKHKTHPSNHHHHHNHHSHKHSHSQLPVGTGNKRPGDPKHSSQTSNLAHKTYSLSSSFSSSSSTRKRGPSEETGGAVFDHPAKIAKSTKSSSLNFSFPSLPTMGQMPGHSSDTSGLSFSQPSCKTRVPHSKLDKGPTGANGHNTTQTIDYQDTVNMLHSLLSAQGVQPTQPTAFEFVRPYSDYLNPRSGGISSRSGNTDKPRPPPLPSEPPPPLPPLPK
Measured endpoint: remaining activity at 1 µM (%)

Cc1ccc(-n2cc(COc3cccc4cnc(Nc5cc(Cl)cc(-c6ccc(C(=O)O)cc6)c5)nc34)nn2)c([N+](=O)[O-])c1 [Compound 10b] ... 99
Cc1ccc(-n2cc(COc3cccc4cnc(Nc5cccc(-c6ccc(C(=O)O)cc6)c5)nc34)nn2)c([N+](=O)[O-])c1 [Compound 10a] ... 84
Cc1ccc(-n2cc(COc3cccc4cnc(Nc5cc(Cl)cc(-c6cccc(C(=O)O)c6)c5)nc34)nn2)c([N+](=O)[O-])c1 [Compound 13b] ... 83
COC(=O)c1ccc(-c2cccc(Nc3ncc4cccc(OCc5cn(-c6ccc(C)cc6[N+](=O)[O-])nn5)c4n3)c2)cc1 ... 98
